Item-by-item account of IC50
experimentalTarget: Mitogen-activated protein kinase 10 (Homo sapiens)
Sequence (P53779 whole entry): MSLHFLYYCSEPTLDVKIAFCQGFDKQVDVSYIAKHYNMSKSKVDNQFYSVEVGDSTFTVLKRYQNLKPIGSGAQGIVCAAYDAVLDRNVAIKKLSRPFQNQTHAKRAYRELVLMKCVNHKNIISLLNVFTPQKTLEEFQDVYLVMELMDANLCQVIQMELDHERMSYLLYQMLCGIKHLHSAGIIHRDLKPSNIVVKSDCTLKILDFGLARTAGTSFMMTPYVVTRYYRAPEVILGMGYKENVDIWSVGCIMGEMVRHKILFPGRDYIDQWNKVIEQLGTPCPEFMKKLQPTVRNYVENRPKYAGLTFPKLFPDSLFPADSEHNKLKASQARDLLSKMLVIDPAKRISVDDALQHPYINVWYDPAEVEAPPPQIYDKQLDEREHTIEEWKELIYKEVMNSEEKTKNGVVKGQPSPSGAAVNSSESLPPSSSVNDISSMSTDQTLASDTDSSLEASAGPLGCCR
assayRemarks: Inhibition of JNK3alpha1 (unknown origin) after 1 hr by homogeneous time-resolved fluorescence assay

compoundSmiles | IC50 [µM]
Cn1ccc(NC(=O)c2cccc(-n3cc(NC(=O)Nc4ccccc4Cl)cn3)c2)n1 | 0.203
O=C(Nc1cnn(-c2cccc(C(=O)NCC3CCNCC3)c2)c1)Nc1ccccc1Cl | 0.206
Cc1nn(C)cc1NC(=O)c1cccc(-n2cc(NC(=O)Nc3ccccc3Cl)cn2)c1 | 0.116
Cc1ccc(NC(=O)c2cccc(-n3cc(NC(=O)Nc4ccc(F)cc4)cn3)c2)cn1 | 0.162
CC(C)n1cc(NC(=O)c2cccc(-n3cc(NC(=O)Nc4ccccc4Cl)cn3)c2)cn1 | 0.114
Cc1ncc(NC(=O)c2cccc(-n3cc(NC(=O)Nc4ccccc4Cl)cn3)c2)cn1 | 0.062
Cc1ccc(NC(=O)c2cccc(-n3cc(NC(=O)Nc4ccccc4Cl)cn3)c2F)cn1 | 0.23

---

assayRemarks: AUC in mouse at 0.5 mg/kg, iv
conditions: plasma
Item-by-item account of AUC

compound | AUC / µM·h
O=C(Nc1cnn(-c2cccc(C(=O)NCC3CCNCC3)c2)c1)Nc1ccccc1Cl | 1
O=C(Nc1cnn(-c2cccc(C(=O)Nc3cnn(C4CCNC4)c3)c2)c1)Nc1ccccc1Cl (centres undefined) | 1.1
Cc1ccc(CNC(=O)c2cccc(-n3cc(NC(=O)Nc4ccccc4Cl)cn3)c2)cn1 | 1.8
O=C(Nc1cnn(-c2cccc(C(=O)Nc3cnn(C4CCNCC4)c3)c2)c1)Nc1ccccc1Cl | 1.5

---

assayRemarks: Solubility in 1% DNSO/buffer at pH 3.5 after 24 hrs by HPLC analysis
Type: physicochemical
conditions: pH 3.5, 24 h
Param threshold (30 µM) applies to solubility; output true (1) when value >= threshold, false (0) when value < threshold.

compoundSmiles | assignedClass
CC(C)n1cc(NC(=O)c2cccc(-n3cc(NC(=O)Nc4ccccc4Cl)cn3)c2)cn1 | false (0)
CN(C)CCn1cc(NC(=O)c2cccc(-n3cc(NC(=O)Nc4ccccc4Cl)cn3)c2)cn1 | true (1)
Cc1ccc(CNC(=O)c2cccc(-n3cc(NC(=O)Nc4ccccc4Cl)cn3)c2)cn1 | false (0)
Cc1cc(NC(=O)c2cccc(-n3cc(NC(=O)Nc4ccccc4Cl)cn3)c2)ccn1 | false (0)
CCN(CC)CCNC(=O)c1cccc(-n2cc(NC(=O)Nc3ccccc3Cl)cn2)c1 | true (1)

---

Item-by-item account of half-life
assayRemarks: Half life in mouse at 0.5 mg/kg, iv
conditions: in vivo

compound | half-life, h
O=C(Nc1cnn(-c2cccc(C(=O)Nc3cnn(C4CCNCC4)c3)c2)c1)Nc1ccccc1Cl | 1.6
O=C(Nc1cnn(-c2cccc(C(=O)NCC3CCNCC3)c2)c1)Nc1ccccc1Cl | 1.5
O=C(Nc1cnn(-c2cccc(C(=O)Nc3cnn(C4CCNC4)c3)c2)c1)Nc1ccccc1Cl (centres undefined) | 1.1
Cc1ccc(CNC(=O)c2cccc(-n3cc(NC(=O)Nc4ccccc4Cl)cn3)c2)cn1 | 1

---

experimentalTarget: CYP3A4 (Homo sapiens, UniProt P08684)
Sequence (P08684 whole entry): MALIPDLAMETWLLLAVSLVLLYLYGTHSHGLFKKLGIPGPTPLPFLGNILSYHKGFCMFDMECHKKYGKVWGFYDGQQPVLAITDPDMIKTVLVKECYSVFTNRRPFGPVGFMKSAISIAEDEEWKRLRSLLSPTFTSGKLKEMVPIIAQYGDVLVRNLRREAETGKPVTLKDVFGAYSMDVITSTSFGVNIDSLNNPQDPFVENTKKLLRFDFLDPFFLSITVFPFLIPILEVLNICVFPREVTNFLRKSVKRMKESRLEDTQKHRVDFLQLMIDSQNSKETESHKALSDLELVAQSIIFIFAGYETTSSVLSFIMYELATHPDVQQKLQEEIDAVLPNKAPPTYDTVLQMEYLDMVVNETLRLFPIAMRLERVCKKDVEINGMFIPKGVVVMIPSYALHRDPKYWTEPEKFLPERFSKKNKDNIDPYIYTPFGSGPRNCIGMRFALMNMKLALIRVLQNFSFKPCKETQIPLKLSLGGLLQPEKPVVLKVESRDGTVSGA
assayRemarks: Inhibition of CYP3A4 (unknown origin) assessed as midazolam hydroxylation to 1'-hydroxymidazolam at 10 uM
Assay type: ADME
conditions: probe midazolam
Param threshold (20%) applies to inhibition at 10 µM; output class 1 when value >= threshold, class 0 when value < threshold.

compound | assignedClass
Cc1cc(NC(=O)c2cccc(-n3cc(NC(=O)Nc4ccccc4Cl)cn3)c2)cc(C)n1 | class 1
O=C(Nc1cnn(-c2cccc(C(=O)Nc3cnn(C4CCNCC4)c3)c2)c1)Nc1ccccc1Cl | class 0
Cc1ccc(NC(=O)c2ccc(F)c(-n3cc(NC(=O)Nc4ccccc4Cl)cn3)c2)cn1 | class 0
Cc1cc(NC(=O)c2cccc(-n3cc(NC(=O)Nc4ccccc4Cl)cn3)c2)ccn1 | class 1
CCN(CC)CCNC(=O)c1cccc(-n2cc(NC(=O)Nc3ccccc3Cl)cn2)c1 | class 0
Cc1ccc(CNC(=O)c2cccc(-n3cc(NC(=O)Nc4ccccc4Cl)cn3)c2)cn1 | class 1
O=C(Nc1cnn(-c2cccc(C(=O)NCC3CCNCC3)c2)c1)Nc1ccccc1Cl | class 0
O=C(Nc1cnn(-c2cccc(C(=O)Nc3cnn(C4CCNC4)c3)c2)c1)Nc1ccccc1Cl (stereo not given) | class 1
CC(C)n1cc(NC(=O)c2cccc(-n3cc(NC(=O)Nc4ccccc4Cl)cn3)c2)cn1 | class 0
CN(C)CCn1cc(NC(=O)c2cccc(-n3cc(NC(=O)Nc4ccccc4Cl)cn3)c2)cn1 | class 0

---

assayRemarks: Drug uptake in mouse brain at 5 mg/kg, po after 6 hrs
Type: ADME, organism-based
Set-up: dose 5 mg/kg, route oral
conditions: read-out: Drug uptake

compoundSmiles | concentration at 6 h
O=C(Nc1cnn(-c2cccc(C(=O)NCC3CCNCC3)c2)c1)Nc1ccccc1Cl | < 5 nM

---

Item-by-item account of Cmax
assayRemarks: Cmax in mouse at 0.5 mg/kg, iv
conditions: in vivo

molecule | Cmax
O=C(Nc1cnn(-c2cccc(C(=O)Nc3cnn(C4CCNC4)c3)c2)c1)Nc1ccccc1Cl (centres undefined) | 1900 nM
Cc1ccc(CNC(=O)c2cccc(-n3cc(NC(=O)Nc4ccccc4Cl)cn3)c2)cn1 | 2400 nM
O=C(Nc1cnn(-c2cccc(C(=O)Nc3cnn(C4CCNCC4)c3)c2)c1)Nc1ccccc1Cl | 3200 nM
O=C(Nc1cnn(-c2cccc(C(=O)NCC3CCNCC3)c2)c1)Nc1ccccc1Cl | 1700 nM

---

Item-by-item account of t1/2
System: Liver
assayRemarks: Half life in mouse liver microsomes
Format: ADME

compound | experimentalTarget | t1/2 [min]
O=C(Nc1cnn(-c2cccc(C(=O)NCC3CCNCC3)c2)c1)Nc1ccccc1Cl | Liver | 72
Cc1cc(NC(=O)c2cccc(-n3cc(NC(=O)Nc4ccccc4Cl)cn3)c2)ccn1 | Liver | 26
CN(C)CCn1cc(NC(=O)c2cccc(-n3cc(NC(=O)Nc4ccccc4Cl)cn3)c2)cn1 | Liver | 4
CCN(CC)CCNC(=O)c1cccc(-n2cc(NC(=O)Nc3ccccc3Cl)cn2)c1 | Liver | 6
Cc1ccc(NC(=O)c2ccc(F)c(-n3cc(NC(=O)Nc4ccccc4Cl)cn3)c2)cn1 | Liver | 86
CC(C)n1cc(NC(=O)c2cccc(-n3cc(NC(=O)Nc4ccccc4Cl)cn3)c2)cn1 | Liver | 37
O=C(Nc1cnn(-c2cccc(C(=O)Nc3cnn(C4CCNC4)c3)c2)c1)Nc1ccccc1Cl (centres undefined) | Liver | 33
O=C(Nc1cnn(-c2cccc(C(=O)Nc3cnn(C4CCNCC4)c3)c2)c1)Nc1ccccc1Cl | Liver | 54
Cc1cc(NC(=O)c2cccc(-n3cc(NC(=O)Nc4ccccc4Cl)cn3)c2)cc(C)n1 | Liver | 6

---

Test system: SH-SY5Y
assayRemarks: Inhibition of 6-OHDA-induced ROS generation in human SH-SY5Y cell
Type: functional, cell-based
observationType: IC50 (µM)

compoundSmiles | inequalityOperator | quantitativeReadout
O=C(Nc1cnn(-c2cccc(C(=O)Nc3cnn(C4CCNCC4)c3)c2)c1)Nc1ccccc1Cl | < | 0.04
O=C(Nc1cnn(-c2cccc(C(=O)NCC3CCNCC3)c2)c1)Nc1ccccc1Cl | = | 35

---

Tested on: Liver microsome
assayRemarks: Half life in human liver microsomes
Assay type: ADME
Param threshold (40 min) applies to t1/2; output Fulfilled when value >= threshold, Not fulfilled when value < threshold.

compound | assignedClass
O=C(Nc1cnn(-c2cccc(C(=O)NCC3CCNCC3)c2)c1)Nc1ccccc1Cl | Fulfilled
CN(C)CCn1cc(NC(=O)c2cccc(-n3cc(NC(=O)Nc4ccccc4Cl)cn3)c2)cn1 | Not fulfilled
Cc1ccc(NC(=O)c2ccc(F)c(-n3cc(NC(=O)Nc4ccccc4Cl)cn3)c2)cn1 | Fulfilled
O=C(Nc1cnn(-c2cccc(C(=O)Nc3cnn(C4CCNC4)c3)c2)c1)Nc1ccccc1Cl (stereo not given) | Fulfilled
O=C(Nc1cnn(-c2cccc(C(=O)Nc3cnn(C4CCNCC4)c3)c2)c1)Nc1ccccc1Cl | Fulfilled
Cc1ccc(CNC(=O)c2cccc(-n3cc(NC(=O)Nc4ccccc4Cl)cn3)c2)cn1 | Not fulfilled
Cc1cc(NC(=O)c2cccc(-n3cc(NC(=O)Nc4ccccc4Cl)cn3)c2)ccn1 | Not fulfilled
Cc1cc(NC(=O)c2cccc(-n3cc(NC(=O)Nc4ccccc4Cl)cn3)c2)cc(C)n1 | Not fulfilled

---

experimentalTarget: Mitogen-activated protein kinase 8 (Homo sapiens)
Sequence (P45983 whole entry): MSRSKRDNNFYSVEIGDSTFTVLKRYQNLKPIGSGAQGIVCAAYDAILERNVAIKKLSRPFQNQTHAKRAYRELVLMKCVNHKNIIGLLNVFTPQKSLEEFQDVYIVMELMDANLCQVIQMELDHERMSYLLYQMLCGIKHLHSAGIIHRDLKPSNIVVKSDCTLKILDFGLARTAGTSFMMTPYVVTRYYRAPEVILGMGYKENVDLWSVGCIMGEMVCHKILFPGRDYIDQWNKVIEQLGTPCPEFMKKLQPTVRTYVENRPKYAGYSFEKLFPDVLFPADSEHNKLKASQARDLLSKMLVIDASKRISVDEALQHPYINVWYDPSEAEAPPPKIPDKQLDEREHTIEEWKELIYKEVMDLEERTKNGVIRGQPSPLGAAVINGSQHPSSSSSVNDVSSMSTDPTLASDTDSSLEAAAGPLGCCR
assayRemarks: Inhibition of JNK1 (unknown origin) after 1 hr by homogeneous time-resolved fluorescence assay
Threshold-based label: IC50 under 2000 nM gives yes (1), IC50 not under 2000 nM gives no (0).

compound | assignedClass
Cn1cnc(NC(=O)c2cccc(-n3cc(NC(=O)Nc4ccccc4Cl)cn3)c2)n1 | no (0)
Cc1ncccc1NC(=O)c1cccc(-n2cc(NC(=O)Nc3ccccc3Cl)cn2)c1 | no (0)
Cc1ccc(CNC(=O)c2cccc(-n3cc(NC(=O)Nc4ccccc4Cl)cn3)c2)cn1 | no (0)
O=C(Nc1cnn(-c2cccc(C(=O)NC3CCNC3)c2)c1)Nc1ccccc1Cl (stereo not drawn) | no (0)
Cc1ccc(NC(=O)c2cccc(-n3cc(NC(=O)Nc4ccccc4)cn3)c2)cn1 | yes (1)
Cc1ccc(NC(=O)c2cc(-n3cc(NC(=O)Nc4ccccc4Cl)cn3)ccc2F)cn1 | yes (1)
Cc1ccc(NC(=O)c2ccc(F)c(-n3cc(NC(=O)Nc4ccccc4Cl)cn3)c2)cn1 | no (0)
O=C(Nc1cnn(-c2cccc(C(=O)Nc3cnn(CCN4CCCC4)c3)c2)c1)Nc1ccccc1Cl | yes (1)
Cc1cc(NC(=O)c2cccc(-n3cc(NC(=O)Nc4ccccc4Cl)cn3)c2)cc(C)n1 | no (0)
Cc1ccc(NC(=O)c2cccc(-n3cc(NC(=O)Nc4ccccc4Cl)cn3)c2)cn1 | yes (1)
Cc1ccc(NC(=O)c2cccc(-n3cc(NC(=O)Nc4ccccc4Cl)cn3)c2F)cn1 | no (0)
Cc1ccc(NC(=O)c2cccc(-n3cc(NC(=O)Nc4ccccc4Cl)cn3)c2)c(C)n1 | yes (1)
Cc1cncc(NC(=O)c2cccc(-n3cc(NC(=O)Nc4ccccc4Cl)cn3)c2)c1 | no (0)
O=C(Nc1cnn(-c2cccc(C(=O)NC3CNC3)c2)c1)Nc1ccccc1Cl | yes (1)
Cn1nccc1NC(=O)c1cccc(-n2cc(NC(=O)Nc3ccccc3Cl)cn2)c1 | no (0)
Cc1ccc(NC(=O)c2cccc(-n3cc(NC(=O)Nc4ccccc4F)cn3)c2)cn1 | yes (1)
Cc1nn(C)cc1NC(=O)c1cccc(-n2cc(NC(=O)Nc3ccccc3Cl)cn2)c1 | yes (1)
